// provenance: the supplement of paper PMC9170038

Test system: MS2 coat protein
Assay: apparent KD of MS2 coat protein; designed switch direction (-1 OFF switch, 1 ON switch): -1; higher = weaker reporter binding
Conditions: input ligand: none
Endpoint: apparent KD of MS2 coat protein (nM)
Unit nM implied. Number only.

For this sequence ( CGAUGUGGAGUGAGGAUAUCGUGUUCGAAAGAACGUGAGAAGGCACAUGAGGAUCACCCAUGUGAUUCACGUCG [Omei Ex4B A6] (Eterna round: R97, puzzle: Brourd's mod of Exclusion 4) ), measured apparent KD of MS2 coat protein is 15.6

For this sequence ( GCUGGUCGAGGAUAUACAUGAGGAUCACCCAUGUAGAUCAACCAGCGAUAGCUGGAAUGUAGAAGGUGACCAGC [E3/5-B1] (Eterna round: R97, puzzle: Exclusion 3) ), measured apparent KD of MS2 coat protein is 15.9

For this sequence ( AAAUGACAUUAGGAUAUGUAACGCGGUUGCCGCACAGAAGGGAUGACUUGAGGAUCACCCAAGUGACCCAAGGA [Tixebion] (Eterna round: R97, puzzle: Exclusion 6) ), measured apparent KD of MS2 coat protein is 28.2
